Kindly supply the reported MIC90 values for the records listed here.
Test system: M. avium
Test Details: NTM activity, M. avium
Format: cell-based
Give bare numbers, in µM.

Take a look at these entries with their results.
Cc1ccc2nc(C)c(C(=O)NCc3ccc(S(C)(=O)=O)cc3)n2c1 ... 6.03
Cc1ccn2c(C(=O)NCc3cccc(OC(C)C)c3)c(C)nc2c1 ... 0.71

Now consider a different compound.
# MIC90 measured on M. avium for item Cc1ccn2c(C(=O)NCc3ncc(C(F)(F)F)cc3Cl)c(C)nc2c1 = 4.42
